Biological target: Full length Human HDAC6 (Homo sapiens, UniProt Q9UBN7)
Sequence (Q9UBN7 1-1215): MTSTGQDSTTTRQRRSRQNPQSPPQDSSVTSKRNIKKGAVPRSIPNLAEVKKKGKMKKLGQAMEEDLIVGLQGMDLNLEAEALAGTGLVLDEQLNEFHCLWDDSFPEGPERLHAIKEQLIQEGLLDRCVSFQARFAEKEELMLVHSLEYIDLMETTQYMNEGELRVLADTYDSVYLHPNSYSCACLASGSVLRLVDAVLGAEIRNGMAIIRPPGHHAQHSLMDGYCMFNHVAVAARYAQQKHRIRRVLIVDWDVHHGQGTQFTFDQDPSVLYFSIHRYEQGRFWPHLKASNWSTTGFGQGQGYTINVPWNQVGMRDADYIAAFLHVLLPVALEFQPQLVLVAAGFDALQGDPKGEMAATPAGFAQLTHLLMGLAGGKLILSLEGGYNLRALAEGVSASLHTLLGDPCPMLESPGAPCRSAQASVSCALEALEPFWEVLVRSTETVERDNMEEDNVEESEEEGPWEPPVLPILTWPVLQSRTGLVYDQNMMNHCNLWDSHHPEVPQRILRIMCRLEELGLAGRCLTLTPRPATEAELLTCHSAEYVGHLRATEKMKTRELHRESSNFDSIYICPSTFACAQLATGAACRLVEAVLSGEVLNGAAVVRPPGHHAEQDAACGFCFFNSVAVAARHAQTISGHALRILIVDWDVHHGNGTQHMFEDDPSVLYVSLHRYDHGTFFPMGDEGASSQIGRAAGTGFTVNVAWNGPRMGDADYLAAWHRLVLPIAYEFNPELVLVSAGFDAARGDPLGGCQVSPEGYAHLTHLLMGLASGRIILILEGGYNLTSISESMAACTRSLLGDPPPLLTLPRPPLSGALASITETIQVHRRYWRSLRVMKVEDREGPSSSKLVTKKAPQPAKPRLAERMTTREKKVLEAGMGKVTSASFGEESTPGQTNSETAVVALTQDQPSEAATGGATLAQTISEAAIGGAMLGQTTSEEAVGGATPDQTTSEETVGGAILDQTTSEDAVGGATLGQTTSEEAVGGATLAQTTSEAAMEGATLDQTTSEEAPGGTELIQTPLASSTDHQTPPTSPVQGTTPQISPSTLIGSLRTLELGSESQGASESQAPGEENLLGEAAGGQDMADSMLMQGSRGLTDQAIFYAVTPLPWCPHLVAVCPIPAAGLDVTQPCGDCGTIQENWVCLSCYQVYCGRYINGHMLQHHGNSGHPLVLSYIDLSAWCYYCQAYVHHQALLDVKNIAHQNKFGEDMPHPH
Give IC50 for every item shown.

Record O=C(NO)c1cc(F)c2c(c1)CCN([C@@H]1CCC3(CCCCC3)C1)C2 (single isomer, unassigned) , field IC50: 1 to 100 nM

Record O=C(NO)c1cc(F)c2c(c1)CN(C[C@H]1CCCCO1)CC2 (single isomer, unassigned) , field IC50: 1 to 100 nM

Record O=C(NO)c1cc(F)c2c(c1)CCN(C1CCC3(CC1)CN(Cc1ccccc1)C3)C2 , field IC50: 1 to 100 nM

Record CC[C@H]1CCCN1Cc1ccc(C(=O)NO)cc1F , field IC50: 100 to 1000 nM

Record O=C(NO)c1ccc2c(c1)CCN1CCCC[C@@H]21 , field IC50: 1000 to 10000 nM

Record CC(C)N1CC2(CCCCC2)CC[C@@H]1Cc1cc(F)cc(C(=O)NO)c1 (single isomer, unassigned) , field IC50: 1000 to 10000 nM

Record CN1Cc2cc(C(=O)NO)ccc2[C@H]2CCCN21 (single isomer, unassigned) , field IC50: 100 to 1000 nM

Record CC(C)N1CC2(CCCCC2)CC[C@H]1Cc1cc(F)cc(C(=O)NO)c1 (single isomer, unassigned) , field IC50: 10000 to 100000 nM

Record O=C(NO)c1cc(F)c2c(c1)CCN([C@H]1CCC3(CCC3)C1)C2 (single isomer, unassigned) , field IC50: 1 to 100 nM

Record CC[C@H]1N(Cc2ccc(C(=O)NO)cc2F)CC12CCCC2 , field IC50: 1 to 100 nM

Record C[C@H]1C[C@H]2c3c(F)cc(C(=O)NO)cc3CCN2C1 (single isomer, unassigned) , field IC50: 100 to 1000 nM

Record CN1CCCCC12CC(N1CCc3cc(C(=O)NO)cc(F)c3C1)C2 (stereo not shown) , field IC50: 1 to 100 nM

Record CN1CCC2(CCC2N2CCc3cc(C(=O)NO)cc(F)c3C2)CC1 (stereo not shown) , field IC50: 1 to 100 nM

Record O=C(NO)c1cc(F)c2c(c1)CCN(C1CCC3(CC1)COC3)C2 , field IC50: 1 to 100 nM

Record O=C(NO)c1cc(F)c2c(c1)CN1CCCC[C@@H]1C2 , field IC50: 1 to 100 nM

Record CC[C@H]1Cc2c(F)cc(C(=O)NO)cc2CN1C1CC2(CCN(C3CC3)CC2)C1 (single isomer, unassigned) , field IC50: 100 to 1000 nM

Record CC[C@@H]1Cc2c(F)cc(C(=O)NO)cc2CN1C1CC2(CCCCC2)C1 (single isomer, unassigned) , field IC50: 100 to 1000 nM

Record CN1CC2(CCC2N2CCc3cc(C(=O)NO)cc(F)c3C2)C1 (stereo not shown) , field IC50: 1 to 100 nM

Record CC[C@@H](c1ccccc1)N1CCc2cc(C(=O)NO)cc(F)c2C1 , field IC50: 1 to 100 nM

Record O=C(NO)c1cc(F)c2c(c1)CN1CCC[C@@H]1C2 , field IC50: 1 to 100 nM

Record O=C(NO)c1cc(F)c2c(c1)CCN(CC1C3CC1CN(C1CC1)C3)C2 (stereo not shown) , field IC50: 1 to 100 nM

Record O=C(NO)c1cc(F)c2c(c1)CCN(C1CC3(CCOC3)C1)C2 (single isomer, unassigned) , field IC50: 1 to 100 nM

Record CC[C@@H]1Cc2c(F)cc(C(=O)NO)cc2CN1CC1CC2CCC(C1)N2C (single isomer, unassigned) , field IC50: 100 to 1000 nM

Record CC[C@@H]1Cc2c(F)cc(C(=O)NO)cc2CN1C1CC2(C1)CN(C)C2 (single isomer, unassigned) , field IC50: 100 to 1000 nM

Record CN1CC[C@]2(CC[C@@H](N3CCc4cc(C(=O)NO)cc(F)c4C3)C2)C1 (single isomer, unassigned) , field IC50: 1 to 100 nM

Record CC[C@@H]1Cc2c(F)cc(C(=O)NO)cc2CN1C[C@@H]1CCCCO1 (single isomer, unassigned) , field IC50: 1 to 100 nM

Record O=C(NO)c1cc(F)c2c(c1)CCN(C1CCC13COC3)C2 (stereo not shown) , field IC50: 1 to 100 nM

Record O=C(NO)c1cc(F)c2c(c1)C[C@@H]1CCC3(CCCCC3)CN1C2 (single isomer, unassigned) , field IC50: 100 to 1000 nM

Record O=C(NO)c1cc(F)c2c(c1)CCN([C@@H]1CCNC3(CCC3)C1)C2 (single isomer, unassigned) , field IC50: 1 to 100 nM

Record O=C(NO)c1cc(F)c2c(c1)CCN1CCC[C@@H]21 , field IC50: 1 to 100 nM

Record O=C(NO)c1cc(F)c2c(c1)C[C@H]1CCCCN1C2 , field IC50: 100 to 1000 nM
